// reported GI50 for each item listed
# Tested on: M14 melanoma
# Method notes: NCI tumour cell line growth inhibition, 48 h

Here is how some compounds turned out for GI50.
[
  {
    "Compound": "S=C(NCc1ccc2c(c1)OCO2)N1CCN(c2ncnc3c2oc2ccccc23)CC1",
    "GI50": "> 71.4 µM"
  },
  {
    "Compound": "COc1ccc(C2CC(c3ccc(N(C)C)cc3)=NN2c2ccc(S(N)(=O)=O)cc2)cc1 (centres undefined)",
    "GI50": "4.42 µM"
  }
]

Qu. Given the compound N#CC1C(N)=NNC12Nc1ccccc1S2 (centres undefined) , what is its reported GI50?
Ans. 15.3 µM

Qu. Also, Nc1nc(-c2ccc(Cl)cc2)nc2c1sc(=S)n2-c1ccccc1 please.
Ans. 7.87 µM

Qu. Cool, now [Cl][Cu][Cl]
Ans. > 10 µM

Qu. And O=C1C(Nc2cccc(O)c2)=C(Sc2ccccc2)C(=O)N1Cc1ccccc1 ?
Ans. 5.35 µM

Qu. Also check C=C1C(=O)O[C@H]2[C@H]1CC/C(COC(=O)NCc1c[nH]c3ccc(F)cc13)=C\CC[C@@]1(C)O[C@@H]21
Ans. 1.23 µM

Qu. Same question for COc1ccc(S(=O)(=O)N2CCNCC2)cc1OC please.
Ans. > 100 µM

Qu. Likewise for COc1ccc2c(c1)C(=O)c1c-2c(=O)n(CCCN(C)C)c2cc(OC)c(OC)cc12 ?
Ans. 6.65 µM
